The measured values listed here are drawn from patent US20240067751A1.

biological target: MASP-2 in human serum (human, UniProt O00187 16-686); assay: cell-based or functional assay
Sequence (O00187 16-686 limits assumed): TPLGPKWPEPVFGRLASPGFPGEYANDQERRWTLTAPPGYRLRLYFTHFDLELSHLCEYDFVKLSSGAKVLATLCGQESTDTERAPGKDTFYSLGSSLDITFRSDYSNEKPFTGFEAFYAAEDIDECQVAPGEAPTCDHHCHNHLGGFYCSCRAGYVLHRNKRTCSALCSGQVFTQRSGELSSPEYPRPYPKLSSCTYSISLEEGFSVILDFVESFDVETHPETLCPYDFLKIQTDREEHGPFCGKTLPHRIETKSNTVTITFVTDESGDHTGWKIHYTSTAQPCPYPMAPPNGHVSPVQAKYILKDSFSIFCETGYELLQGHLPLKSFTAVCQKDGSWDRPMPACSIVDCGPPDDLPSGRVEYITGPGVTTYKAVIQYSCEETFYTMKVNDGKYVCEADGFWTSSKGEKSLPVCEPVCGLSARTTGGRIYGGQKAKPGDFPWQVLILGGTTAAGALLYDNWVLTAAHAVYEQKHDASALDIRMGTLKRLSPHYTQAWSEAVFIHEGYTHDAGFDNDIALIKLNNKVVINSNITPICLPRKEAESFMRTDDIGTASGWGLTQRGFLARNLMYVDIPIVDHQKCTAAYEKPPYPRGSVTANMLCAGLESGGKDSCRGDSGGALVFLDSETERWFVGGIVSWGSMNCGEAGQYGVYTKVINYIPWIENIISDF
Property: IC50, inhibition of C3b deposition (nM)
Numbers only; they are read as nM.

Exercise: Any idea what its IC50, inhibition of C3b deposition is? The binder is h3H6 H3K1 (antibody, V domains shown) VH: QVQLVQSGAEVKKPGSSVKVSCKASGYTFATYSIHWVRQAPGQGLEWMGYINPSSGYTNYNQKFQGRVTITADKSTSTAYMELSSLRSEDTAVYYCARVYYTFYHAMDYWGQGTTVTVSS VL: DIQMTQSPSSLSASVGDRVTITCRASQDVNTAVAWYQQKPGKAPKLLIYSASYRYTGVPSRFSGSGSGTDFTLTISSLQPEDFATYYCQQHYNIPLTFGGGTKVEIK
Key: 0.034

Exercise: What do you have for h16B11 H2K1 (antibody, V domains shown) VH: QLQLQESGPGLVKPSETLSLTCTVSGYSITSDYAWNWIRQPPGKGLEWIGYISYSGRTSYNPSLKSRVTISRDTSKNQFSLKLSSVTAADTAVYYCARHYGDYWGQGTLVTVSS VL: DIQMTQSPSSLSASVGDRVTITCRASQNVGTNVAWYQQKPGKAPKALIYSASYRESGVPSRFSGSGSGTDFTLTISSLQPEDFATYFCQQFNTNPLTFGGGTKVEIK ?
Key: 0.017

Exercise: What do you have for h16B11 H3K4 (antibody, V domains shown) VH: QLQLQESGPGLVKPSETLSLTCTVSGYSITSDYAWNWIRQPPGKGLEWIGYISYSGRTSYNPSLKSRVTISVDTSKNQFSLKLSSVTAADTAVYYCARHYGDYWGQGTLVTVSS VL: EIVMTQSPATLSVSPGERATLSCRASQNVGTNVAWYQQKPGQAPRALIYSASYRESGIPARFSGSGSGTEFTLTISSLQSEDFAVYFCQQFNTNPLTFGGGTKVEIK ?
Key: 0.052

Exercise: What do you have for h16B11 H1K5 (antibody, V domains shown) VH: QMQLQESGPGLVKPSETLSLTCTVSGYSITSDYAWNWIRQPPGKGLEWIGYISYSGRTSYNPSLKSRVTISRDTSKNQFSLKLSSVTAADTAVYYCARHYGDYWGQGTLVTVSS VL: EIVMTQSPATLSVSPGERATLSCRASQNVGTNVAWYQQKPGQAPRLLIYSASYRESGIPARFSGSGSGTEFTLTISSLQSEDFAVYFCQQFNTNPLTFGGGTKVEIK ?
Key: 0.024

Exercise: What do you have for h3H6 H4K1 (antibody, V domains shown) VH: QVQLVQSGAEVKKPGSSVKVSCKASGYTFATYSIHWVRQAPGQGLEWMGYINPSSGYTNYNQKFQGRVTITADESTSTAYMELSSLRSEDTAVYYCARVYYTFYHAMDYWGQGTTVTVSS VL: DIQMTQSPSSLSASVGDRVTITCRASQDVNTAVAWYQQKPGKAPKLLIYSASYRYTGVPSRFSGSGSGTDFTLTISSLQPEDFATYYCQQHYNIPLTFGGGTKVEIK ?
Key: 0.151
